Tested on: 23132-87 (Gastric Carcinoma);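 also: after 72 h of two-drug dosing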
assay.notes: Bliss excess, mean over the matrix (fraction); higher = more synergy
property.measured: Bliss excess
Numbers only.

[
  {
    "compound": "CCN(CCO)CCCOc1ccc2c(Nc3cc(CC(=O)Nc4cccc(F)c4)[nH]n3)ncnc2c1 [AZD2811] + C=CCn1c(=O)c2cnc(Nc3ccc(N4CCN(C)CC4)cc3)nc2n1-c1cccc(C(C)(C)O)n1 [AZD1775] (first compound max 1 µM, partner max 1 µM)",
    "target.under.test": "23132-87 (Gastric Carcinoma)",
    "Bliss excess": 0.0208
  },
  {
    "compound": "CC(=O)c1c(C)c2cnc(Nc3ccc(N4CCNCC4)cn3)nc2n(C2CCCC2)c1=O [Palbociclib] + Cn1cnc2c(F)c(Nc3ccc(Br)cc3Cl)c(C(=O)NOCCO)cc21 [Selumetinib] (first compound max 10 µM, 7x7, partner max 10 µM)",
    "target.under.test": "23132-87 (Gastric Carcinoma)",
    "Bliss excess": -0.0683
  },
  {
    "compound": "CN(CCO)CC[C@H](CSc1ccccc1)Nc1ccc(S(=O)(=O)NC(=O)c2ccc(N3CCC([C@@H](O)c4ccccc4-c4ccc(Cl)cc4)CC3)cc2)cc1S(=O)(=O)C(F)(F)F [AZD4320] + C1CN(CCC1(C(=O)N[C@@H](CCO)C2=CC=C(C=C2)Cl)N)C3=NC=NC4=C3C=CN4 [Capivasertib] (first compound max 1 µM, 7x7, partner max 3 µM)",
    "target.under.test": "23132-87 (Gastric Carcinoma)",
    "Bliss excess": -0.0483
  },
  {
    "compound": "Cc1cc2ncnn2cc1Nc1ncc2c(n1)n(C1CCOCC1)c(=O)n2C [AZD7648] + C[C@@H]1COCCN1C2=NC(=NC(=C2)C3(CC3)[S@](=N)(=O)C)C4=C5C=CNC5=NC=C4 [AZD6738] (first compound max 10 µM, 7x7, partner max 10 µM)",
    "target.under.test": "23132-87 (Gastric Carcinoma)",
    "Bliss excess": -0.0027
  },
  {
    "compound": "COc1nnc2ccc(N3CCC(c4ccc(OCCN5CCN(C)C(=O)[C@H]5C)cc4)CC3)nn12 [AZD5153] + Cc1c2c(nn1C)CSCc1cc(n(C)n1)CSc1cc(c3ccccc3c1)OCCCc1c(C(=O)O)n(C)c3c-2c(Cl)ccc13 [AZD5991] (first compound max 1 µM, 7x7, partner max 1 µM)",
    "target.under.test": "23132-87 (Gastric Carcinoma)",
    "Bliss excess": 0.0791
  }
]

Batch request: Bliss excess for each of the following compounds.
1. CC(=O)c1c(C)c2cnc(Nc3ccc(N4CCNCC4)cn3)nc2n(C2CCCC2)c1=O [Palbociclib] + CN(CC[C@H](CSC1=CC=CC=C1)NC2=C(C=C(C=C2)S(=O)(=O)NC(=O)C3=CC=C(C=C3)N4CCC(CC4)[C@H](C5=CC=CC=C5C6=CC=C(C=C6)Cl)O)S(=O)(=O)C(F)(F)F)CCO [AZD4320] (first compound max 10 µM, 7x7, partner max 1 µM)
2. COc1cccc(OCCCN)c1-c1cc(Nc2cnc(C#N)cn2)n[nH]1 [Prexasertib] + C[C@@H]1COCCN1C2=NC(=NC(=C2)C3(CC3)[S@](=N)(=O)C)C4=C5C=CNC5=NC=C4 [AZD6738] (first compound max 1 µM, 7x7, partner max 10 µM)
3. CC(=O)c1c(C)c2cnc(Nc3ccc(N4CCNCC4)cn3)nc2n(C2CCCC2)c1=O [Palbociclib] + Cc1c2c(nn1C)CSCc1cc(n(C)n1)CSc1cc(c3ccccc3c1)OCCCc1c(C(=O)O)n(C)c3c-2c(Cl)ccc13 [AZD5991] (first compound max 10 µM, 7x7, partner max 1 µM)

(A)
1. -0.093
2. -0.0085
3. -0.198

Item NC1(C(=O)N[C@@H](CCO)c2ccc(Cl)cc2)CCN(c2ncnc3[nH]ccc23)CC1 [Capivasertib] + CC(C)n1c(=O)n(C)c2cnc3cc(F)c(-c4ccc(OCCCN5CCCCC5)nc4)cc3c21 [AZD1390] (first compound max 10 µM, 7x7, partner max 0.3 µM) was tested on 23132-87 (Gastric Carcinoma); the reported Bliss excess is -0.055
